Target: T1, human αvβ6 on 293F:huβ6 cells (human, UniProt P06756 31-1048; P18564 22-788)
T1 chain 1: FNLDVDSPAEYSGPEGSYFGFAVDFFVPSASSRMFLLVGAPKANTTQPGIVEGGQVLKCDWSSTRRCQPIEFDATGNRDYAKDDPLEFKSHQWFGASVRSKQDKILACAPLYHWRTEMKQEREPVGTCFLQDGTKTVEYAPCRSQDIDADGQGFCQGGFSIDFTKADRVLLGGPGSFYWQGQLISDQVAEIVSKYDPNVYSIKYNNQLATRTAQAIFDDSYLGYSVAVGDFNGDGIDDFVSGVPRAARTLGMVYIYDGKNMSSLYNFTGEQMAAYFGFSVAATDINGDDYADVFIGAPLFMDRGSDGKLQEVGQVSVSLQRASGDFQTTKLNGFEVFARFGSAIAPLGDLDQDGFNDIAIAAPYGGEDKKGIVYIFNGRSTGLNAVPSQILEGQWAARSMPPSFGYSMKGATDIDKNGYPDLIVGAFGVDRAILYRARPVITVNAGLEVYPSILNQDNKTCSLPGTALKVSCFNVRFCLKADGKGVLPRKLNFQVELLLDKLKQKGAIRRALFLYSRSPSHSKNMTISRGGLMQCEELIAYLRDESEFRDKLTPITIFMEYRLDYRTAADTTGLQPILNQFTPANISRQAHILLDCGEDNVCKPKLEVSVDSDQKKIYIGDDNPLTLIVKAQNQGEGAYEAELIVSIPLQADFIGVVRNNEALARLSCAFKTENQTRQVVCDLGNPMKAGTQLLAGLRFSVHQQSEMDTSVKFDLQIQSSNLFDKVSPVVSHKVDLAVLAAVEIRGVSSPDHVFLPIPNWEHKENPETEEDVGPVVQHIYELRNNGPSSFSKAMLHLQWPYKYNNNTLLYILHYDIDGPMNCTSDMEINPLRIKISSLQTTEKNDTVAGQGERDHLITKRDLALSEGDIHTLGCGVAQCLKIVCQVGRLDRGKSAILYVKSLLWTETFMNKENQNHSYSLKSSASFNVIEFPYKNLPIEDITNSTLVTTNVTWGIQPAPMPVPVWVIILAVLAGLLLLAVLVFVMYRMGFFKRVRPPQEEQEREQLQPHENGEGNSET
T1 chain 2: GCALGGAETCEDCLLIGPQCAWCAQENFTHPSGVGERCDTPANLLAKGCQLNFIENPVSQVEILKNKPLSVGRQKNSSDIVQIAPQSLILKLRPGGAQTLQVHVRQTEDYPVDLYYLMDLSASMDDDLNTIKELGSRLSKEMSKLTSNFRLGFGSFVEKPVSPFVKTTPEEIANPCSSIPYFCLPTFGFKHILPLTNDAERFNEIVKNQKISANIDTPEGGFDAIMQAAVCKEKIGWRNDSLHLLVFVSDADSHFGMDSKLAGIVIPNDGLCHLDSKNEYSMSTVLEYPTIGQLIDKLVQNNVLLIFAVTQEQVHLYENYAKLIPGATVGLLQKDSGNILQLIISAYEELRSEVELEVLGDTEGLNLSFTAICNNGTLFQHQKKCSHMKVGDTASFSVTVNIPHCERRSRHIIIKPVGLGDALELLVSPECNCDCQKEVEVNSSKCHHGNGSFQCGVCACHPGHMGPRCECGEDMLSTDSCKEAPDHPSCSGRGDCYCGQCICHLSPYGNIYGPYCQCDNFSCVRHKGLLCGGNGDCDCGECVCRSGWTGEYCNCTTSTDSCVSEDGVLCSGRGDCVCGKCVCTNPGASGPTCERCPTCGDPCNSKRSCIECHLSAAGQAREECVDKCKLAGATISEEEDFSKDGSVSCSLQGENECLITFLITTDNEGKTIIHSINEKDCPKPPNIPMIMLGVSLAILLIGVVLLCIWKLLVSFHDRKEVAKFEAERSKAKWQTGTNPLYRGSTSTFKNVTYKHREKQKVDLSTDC
Assay: competition binding on 293F cells; 2nM m2A2-AF647 competitor
propertyMeasured: EC50 (nM)
Give bare numbers, in nM.

Record excerpt, results attached:
h2A2 HCLF (antibody, V domains shown) VH: QFQLVQSGAEVKKPGASVKVSCKASGYSFTDYNVNWVRQAPGQGLEWIGVINPKYGTTRYNQKFKGRATLTVDKSTSTAYMELSSLRSEDTAVYYCTRGLNAWDYWGQGTLVTVSS VL: DIQMTQSPSSLSASVGDRVTITCQASENIYGALNWYQQKPGKAPKLLIYGATNLATGVPSRFSGSGSGTDYTFTISSLQPEDIATYYCQNVLTTPYTFGQGTKLEIKR
6
h2A2 HCLD (antibody, V domains shown) VH: QFQLVQSGAEVKKPGASVKVSCKASGYSFTDYNVNWVRQAPGQGLEWIGVINPKYGTTRYNQKFKGRATLTVDKSTSTAYMELSSLRSEDTAVYYCTRGLNAWDYWGQGTLVTVSS VL: DIQMTQSPSSLSASVGDRVTITCGASENIYGALNWYQQKPGKAPKLLIYGATNLADGVPSRFSGSGSGTDYTFTISSLQPEDIATYYCQNVLTTPYTFGQGTKLEIKR
5

# input for lookup
INPUT: Requested read-out: EC50. Entry: h2A2 HALH (antibody, V domains shown) VH: QFQLVQSGAEVKKPGASVKVSCKASGYSFTDYNVNWVRQAPGQGLEWMGVINPKYGTTRYNQKFKGRVTMTRDTSTSTVYMELSSLRSEDTAVYYCTRGLNAWDYWGQGTLVTVSS VL: DIQMTQSPSSLSASVGDRVTITCGASENIYGALNWYQQKPGKAPKLLIYGATNLADGVPSRFSGSGSGRDFTFTISSLQPEDIATYYCQNVLTTPYTFGQGTKLEIKR
OUTPUT: 46
